target: CXCR7 (Homo sapiens (Human), UniProt P25106); experiment: PathHunter CHO-K1 CXCR7 b-arrestin assay (agonistic activity); details: PathHunter CHO-K1 CXCR7 b-arrestin cell line
Sequence (P25106 whole entry): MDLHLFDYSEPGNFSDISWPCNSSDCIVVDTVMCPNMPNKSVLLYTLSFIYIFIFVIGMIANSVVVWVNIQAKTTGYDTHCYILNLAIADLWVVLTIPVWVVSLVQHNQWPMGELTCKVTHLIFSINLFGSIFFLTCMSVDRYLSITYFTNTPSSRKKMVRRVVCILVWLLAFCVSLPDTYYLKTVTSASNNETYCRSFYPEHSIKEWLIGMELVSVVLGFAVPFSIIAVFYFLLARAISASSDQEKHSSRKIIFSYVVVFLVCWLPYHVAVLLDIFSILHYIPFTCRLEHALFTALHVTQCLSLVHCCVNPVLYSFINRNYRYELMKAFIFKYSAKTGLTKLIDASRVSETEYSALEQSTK
Sequence (P32121 whole entry partner): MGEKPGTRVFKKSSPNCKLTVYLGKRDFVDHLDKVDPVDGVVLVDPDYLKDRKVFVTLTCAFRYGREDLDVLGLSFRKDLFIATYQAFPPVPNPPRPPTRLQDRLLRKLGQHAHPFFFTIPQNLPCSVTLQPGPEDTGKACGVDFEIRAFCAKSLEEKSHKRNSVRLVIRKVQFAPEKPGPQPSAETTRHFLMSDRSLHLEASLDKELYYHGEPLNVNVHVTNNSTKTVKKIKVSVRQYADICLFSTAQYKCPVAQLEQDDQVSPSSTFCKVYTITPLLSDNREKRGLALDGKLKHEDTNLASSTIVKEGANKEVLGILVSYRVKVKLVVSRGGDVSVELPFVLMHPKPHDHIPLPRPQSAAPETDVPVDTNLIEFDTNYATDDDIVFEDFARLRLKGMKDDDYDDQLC
pEC50: −log10 of the molar value.
ENDPOINT_NAME: pEC50

MOLECULE | MEASURED_NUMBER
CC(C)C(=O)Nc1cccc(CN2CCC(C(=O)NC3CCCCC3)CC2)c1 | 6.92
CC(c1cccc(NC(=O)c2ccccn2)c1)N1CCC(C(=O)NC2CCCCC2)CC1 (racemic) | 7.92
O=C(Nc1cccc(CN2CCC(C(=O)NC3CCCCC3)CC2)c1)c1ccc(Cl)cn1 | 9.00
CC(C(=O)Nc1cccc(CN2CCC(C(=O)NC(C)(C)C)CC2)c1)c1ccc(Cl)cc1 (stereo not drawn) | 8.10
O=C(Nc1cccc(CN2CCC(C(=O)NC3CCCCC3)CC2)c1Cl)c1ccc(Cl)cc1 | 5.56
O=C(Nc1cccc(CN2CCC(C(=O)NC3CCCCC3)CC2)c1)C1CCCCC1 | 8.00

---

target: CXCR7 (Homo sapiens (Human), UniProt P25106); experiment: PathHunter CHO-K1 CXCR7 b-arrestin assay (agonistic activity); conditions: PathHunter CHO-K1 CXCR7 b-arrestin cell line
Please assign class 0 whenever EC50 is at or above 30 nM, and class 1 whenever it is below.

COMPOUND | QUALITATIVE_LABEL
CC(C)CN(C)C(=O)C1CCN(Cc2cccc(NC(=O)c3cccc(C(F)(F)F)n3)c2)CC1 | class 1
CC(c1cccc(NC(=O)c2cnc3[nH]ccc3c2)c1)N1CCC(C(=O)NC2CCCCC2)CC1 (racemic) | class 0
O=C(Nc1cccc(CN2CCC(C(=O)NC3CCCCC3)CC2)c1)c1cc(Cl)ccc1Cl | class 1
CC(C)(C)NC(=O)C1CCN(Cc2cccc(NC(=O)c3cccc(S(C)(=O)=O)c3)c2)CC1 | class 0
CC(C)(C)NC(=O)C1CCN(Cc2cccc(NC(=O)c3cccnn3)c2)CC1 | class 1
CC(c1cccc(NC(=O)c2ccncc2Cl)c1)N1CCC(C(=O)NC2CCCCC2)CC1 (racemic) | class 0
Cc1cncc(C(=O)Nc2cccc(C(C)N3CCC(C(=O)NC4CCCCC4)CC3)c2)c1 (racemic) | class 1
CN1CCN(c2ccc(C(=O)Nc3cccc(CN4CCC(C(=O)NC5CCCCC5)CC4)c3)cn2)CC1 | class 0
CC(C)(C)c1ccc(C(=O)Nc2cccc(CN3CCC(C(=O)NC4CCCCC4)CC3)c2)cc1 | class 0
CCc1cc(CN2CCC(C(=O)NC(C)(C)C)CC2)cc(NC(=O)c2cncc(C)c2)c1 | class 0
Cc1cc(C(=O)Nc2cccc(CN3CCC(C(=O)NC(C)(C)C)CC3)c2)c(Cl)nn1 | class 0
CC(C)(C)NC(=O)C1CCN(Cc2cc(Br)cc(NC(=O)c3cccc(C(F)(F)F)n3)c2)CC1 | class 0
Cc1cccc(C(=O)Nc2cccc(CN3CCC(C(=O)NC4CCCCC4)CC3)c2)c1 | class 1
Cc1ccncc1C(=O)Nc1cccc(CN2CCC(C(=O)NC3CCCCC3)CC2)c1 | class 0

---

Form field: EC50 (one value per entry).
Molecular target: CXCR7 (Homo sapiens (Human), UniProt P25106)
Experiment: PathHunter CHO-K1 CXCR7 b-arrestin assay (agonistic activity)
Conditions: PathHunter CHO-K1 CXCR7 b-arrestin cell line
Description: The CXCl12 receptor and CXCR7 agonistic activities of the compounds of formula (I) are determined in accordance with the following experimental method. The assay is using the PathHunter™ CHO-K1 CXCR7 b-arrestin cell line from DiscoverX. The system is based on the Enzyme Fragment Complementation Technology. Two complementing fragments of the b-galactosidase enzyme are expressed within stably transfected cells. […]
ENDPOINT_NAME: EC50 (nM)

MOLECULE | MEASURED_NUMBER
Cn1cc(C(=O)Nc2cccc(CN3CCC(C(=O)NC4CCCCC4)CC3)c2)c2ccccc21 [Example 1.026] | 182
COc1ncccc1C(=O)Nc1cccc(CN2CCC(C(=O)NC3CCCCC3)CC2)c1 [Example 1.069] | 10
O=C(Nc1cccc(CN2CCC(C(=O)NC3CCCC3)CC2)c1)c1cncc(C(F)(F)F)c1 [Example 1.212] | 2
O=C(Nc1cccc(CN2CCC(C(=O)NC3CCCC3)CC2)c1)c1cc(C(F)(F)F)ccn1 [Example 1.216] | 7
CC(C)(C)NC(=O)C1CCN(Cc2cccc(NC(=O)c3ccc(C(F)(F)F)c[n+]3[O-])c2)CC1 [Example 1.348] | 8
Cc1cncc(C(=O)Nc2ccc(C)c(CN3CCC(C(=O)NC(C)(C)C)CC3)c2)c1 [Example 1.299] | 3
CCC(c1cccc(NC(=O)c2cccc(C(F)(F)F)n2)c1)N1CCC(C(=O)NC2CCCCC2)CC1 (racemic) [Example 1.308] | 87
O=C(Nc1cccc(CN2CCC(C(=O)NC3CCCC3)CC2)c1)c1cccnc1C(F)(F)F [Example 1.214] | 109
O=C(Nc1cccc(CN2CCC(C(=O)NC3CCCCC3)CC2)c1)c1ccc(CCF)cc1 [Example 1.148] | 5
CC(C)(C)NC(=O)C1CCN(Cc2cccc(NC(=O)Cc3ccc(Cl)cc3Cl)c2)CC1 [Example 1.244] | 5
O=C(Nc1cccc(CN2CCC(C(=O)NC3CCCCC3)CC2)c1)c1ncccc1Br [Example 1.085] | 1
CC(C)(C)NC(=O)C1CCN(Cc2cccc(NC(=O)C3CC3(C)C)c2)CC1 (racemic) [Example 1.257] | 7
CC(c1cccc(NC(=O)c2ccc(N3CCCC3)cn2)c1)N1CCC(C(=O)NC2CCCCC2)CC1 (racemic) [Example 1.188] | 215
CCc1ccc(CN2CCC(C(=O)NC(C)(C)C)CC2)cc1NC(=O)c1cccc(C(F)(F)F)n1 [Example 1.326] | 2
Cc1cc(C)nc(C(=O)Nc2cccc(CN3CCC(C(=O)NC4CCCCC4)CC3)c2)c1 [Example 1.083] | 11
